Target: human M2 receptor (Homo sapiens)
Conditions: Receptor activity EC50, M2-GIRK1/4 activation test, acetylcholine at EC20; allosteric potency; in some cases mean values from two or more determinations
pEC50: −log10 of the molar value.
Threshold check on pEC50: at or above 7 gives t, strictly below gives f.

Exam item: Hi team, for CC[C@@H](NC(=O)c1cn(-c2ccc(F)cc2F)c2nc(N3CC(OC(=O)NC)CC3=O)ccc2c1=O)C(F)(F)F (some centres unmarked) [Example 200] , is the recorded pEC50 at or above 7?
Marked response: f

Exam item: Hi team, for O=C(NC12CC3CC(CC(C3)C1)C2)c1cn(-c2ccc(F)cc2F)c2nc(N3CCCS3(=O)=O)ccc2c1=O [Example 167] , is the recorded pEC50 at or above 7?
Marked response: t

Exam item: Hi team, for CC[C@@H](NC(=O)c1cn(-c2ccc(F)cc2F)c2nc(N3C[C@@H]4C(COC)[C@@H]4C3)ccc2c1=O)C(F)(F)F (some centres unmarked) [Example 190] , is the recorded pEC50 at or above 7?
Marked response: t

Exam item: Hi team, for O=C(NC(c1c(F)cccc1F)C(F)(F)F)c1cn(-c2ccc(F)cc2F)c2nc(N3C[C@@H](O)CC3=O)ccc2c1=O (mixture of isomers) [Example 244] , is the recorded pEC50 at or above 7?
Marked response: t

Exam item: Hi team, for O=C(NC(c1ccccc1Cl)C(F)(F)F)c1cn(-c2ccc(F)cc2F)c2nc(N3CC[C@@H](O)C3=O)ccc2c1=O (some centres unmarked) [Example 299] , is the recorded pEC50 at or above 7?
Marked response: t

Exam item: Hi team, for O=C(NC(C(F)(F)F)C(F)(F)F)c1cn(-c2ccc(F)cc2F)c2nc(NCC(F)F)ccc2c1=O [Example 126] , is the recorded pEC50 at or above 7?
Marked response: f

Exam item: Hi team, for C[C@@H](COC(F)(F)F)NC(=O)c1cn(-c2c(F)cc(F)cc2Cl)c2nc(N3C[C@@H](O)[C@H](O)C3)ccc2c1=O [Example 322] , is the recorded pEC50 at or above 7?
Marked response: t

Exam item: Hi team, for CC[C@@H](NC(=O)c1cn(-c2c(F)cccc2Cl)c2nc(N3CC4CC4(O)C3)ccc2c1=O)C(F)(F)F (mixture of isomers) [Example 310] , is the recorded pEC50 at or above 7?
Marked response: t

Exam item: Hi team, for O=C(NC(c1ccccc1Cl)C(F)(F)F)c1cn(-c2ccccc2F)c2nc(N3CCC(O)C3=O)ccc2c1=O (single isomer, unassigned) [Example 291] , is the recorded pEC50 at or above 7?
Marked response: f

Exam item: Hi team, for O=C(N[C@@H](C1CC1)C(F)(F)F)c1cn(-c2c(F)cccc2F)c2nc(N3C[C@@H](O)[C@H](O)C3)ccc2c1=O [Example 345] , is the recorded pEC50 at or above 7?
Marked response: t

Exam item: Hi team, for O=C(NC(c1c(F)cccc1F)C(F)(F)F)c1cn(-c2ccc(F)cc2F)c2nc(N3CCC(O)CC3=O)ccc2c1=O (single isomer, unassigned) [Example 253] , is the recorded pEC50 at or above 7?
Marked response: f

Exam item: Hi team, for CC[C@@H](NC(=O)c1cn(-c2ccccc2C(F)(F)F)c2nc(N3C[C@@H](O)CC3=O)ccc2c1=O)C(F)(F)F (single isomer, unassigned) [Example 269] , is the recorded pEC50 at or above 7?
Marked response: f

Exam item: Hi team, for CC[C@@H](NC(=O)c1cn(-c2ccc(F)cc2F)c2nc(N3CC(F)C3)ccc2c1=O)C(F)(F)F [Example 32] , is the recorded pEC50 at or above 7?
Marked response: f

Exam item: Hi team, for O=C(N[C@H](C1CC1)C(F)(F)F)c1cn(-c2c(F)cc(F)cc2F)c2nc(N3C[C@@H](O)CC3=O)ccc2c1=O [Example 386] , is the recorded pEC50 at or above 7?
Marked response: t

Exam item: Hi team, for O=C(NC(c1cccc(Cl)c1)C(F)(F)F)c1cn(-c2ccc(F)cc2F)c2nc(N3C[C@@H](O)CC3=O)ccc2c1=O (mixture of isomers) [Example 274] , is the recorded pEC50 at or above 7?
Marked response: t

----------
Target: human M2 receptor (Homo sapiens)
Sequence (P08172 1-466): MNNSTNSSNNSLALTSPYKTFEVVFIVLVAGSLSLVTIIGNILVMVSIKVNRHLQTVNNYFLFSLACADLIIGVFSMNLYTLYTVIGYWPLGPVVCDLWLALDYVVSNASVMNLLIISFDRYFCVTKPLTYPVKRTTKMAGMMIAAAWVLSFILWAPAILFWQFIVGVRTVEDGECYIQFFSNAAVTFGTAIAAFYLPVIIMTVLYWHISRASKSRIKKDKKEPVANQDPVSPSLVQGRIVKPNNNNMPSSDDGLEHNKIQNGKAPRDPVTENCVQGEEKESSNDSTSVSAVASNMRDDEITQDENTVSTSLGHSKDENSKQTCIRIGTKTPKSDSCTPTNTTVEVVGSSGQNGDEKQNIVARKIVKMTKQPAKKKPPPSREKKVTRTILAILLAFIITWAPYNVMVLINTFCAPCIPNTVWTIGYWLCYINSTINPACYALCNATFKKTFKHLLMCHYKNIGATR
Settings: Receptor activity EC50, allosteric potency at EC20 acetylcholine; M2-GIRK1/4 reporter cells; in some cases mean of two or more determinations
property.name: EC50 (nM)
Quick note: give the figure in nM, leave out the unit.

Exam item: Tell me measured EC50 for CC(NC(=O)c1cn(-c2c(F)cc(F)cc2F)c2nc(N3C[C@@H](C)NC3=O)ccc2c1=O)C(F)(F)C(F)(F)F (single isomer, unassigned) [Example 460] please.
Marked response: 5

Exam item: Tell me measured EC50 for COC(=O)N1CCN(c2ccc3c(=O)c(C(=O)N[C@H](C4CC4)C(F)(F)F)cn(-c4c(F)cc(F)cc4F)c3n2)CC1 please.
Marked response: 18

Exam item: Tell me measured EC50 for O=C(NC12CC(F)(C1)C2)c1cn(-c2c(F)cc(F)cc2Cl)c2nc(N3C[C@@H](O)[C@H](O)C3)ccc2c1=O please.
Marked response: 41

Exam item: Tell me measured EC50 for CC(C)C(NC(=O)c1cn(-c2c(F)cc(F)cc2F)c2nc(N3C[C@@H](O)CC3=O)ccc2c1=O)C(F)(F)F (single isomer, unassigned) [Example 528] please.
Marked response: 6

Exam item: Tell me measured EC50 for CC(C)(NC(=O)c1cn(-c2c(F)cc(F)cc2F)c2nc(N3C[C@@H](O)CC3=O)ccc2c1=O)C1CC1 please.
Marked response: 10

Exam item: Tell me measured EC50 for COC(=O)N1CCN(c2ccc3c(=O)c(C(=O)N[C@@H](C4CC4)C(F)(F)F)cn(-c4c(F)cc(F)cc4F)c3n2)CC1 please.
Marked response: 25

----------
Biological target: human M2 receptor (Homo sapiens, UniProt P08172)
Conditions: read-out: Efficiency, boosting of the acetylcholine effect at EC20 acetylcholine concentration; M2-GIRK1/4 reporter cells
property.name: Emax (%)
Quick note: give the figure in %, leave out the unit.

Exam item: Tell me measured Emax for CC[C@@H](NC(=O)c1cn(-c2c(F)cc(F)cc2Cl)c2nc(N3C[C@@H](O)CC3=O)ccc2c1=O)C(F)(F)F please.
Marked response: 98.5

Exam item: Tell me measured Emax for O=C(N[C@H](C(F)F)C1CC1)c1cn(-c2c(F)cc(F)cc2F)c2nc(N3C[C@@H](O)CC3=O)ccc2c1=O please.
Marked response: 100

Exam item: Tell me measured Emax for CC[C@H](NC(=O)c1cn(-c2c(F)cc(F)cc2F)c2nc(N3C[C@@H](C)NC3=O)ccc2c1=O)C(F)(F)F please.
Marked response: 92

Exam item: Tell me measured Emax for O=C(N[C@@H](C1CC1)C(F)(F)F)c1cn(-c2c(F)cc(F)cc2F)c2nc(N3CCC[C@@H]3CO)ccc2c1=O please.
Marked response: 95.5

Exam item: Tell me measured Emax for CC(NC(=O)c1cn(-c2c(F)cc(F)cc2F)c2nc(N3C[C@@H](O)[C@H](O)C3)ccc2c1=O)(C1CC1)C(F)(F)F (single isomer, unassigned) [Example 442] please.
Marked response: 100

Exam item: Tell me measured Emax for O=C(NC(CC(F)(F)F)C(F)(F)F)c1cn(-c2c(F)cc(F)cc2F)c2nc(N3C[C@@H](O)CC3=O)ccc2c1=O (single isomer, unassigned) [Example 607] please.
Marked response: 100

----------
Biological target: human M2 receptor (Homo sapiens, UniProt P08172)
Sequence (P08172 1-466): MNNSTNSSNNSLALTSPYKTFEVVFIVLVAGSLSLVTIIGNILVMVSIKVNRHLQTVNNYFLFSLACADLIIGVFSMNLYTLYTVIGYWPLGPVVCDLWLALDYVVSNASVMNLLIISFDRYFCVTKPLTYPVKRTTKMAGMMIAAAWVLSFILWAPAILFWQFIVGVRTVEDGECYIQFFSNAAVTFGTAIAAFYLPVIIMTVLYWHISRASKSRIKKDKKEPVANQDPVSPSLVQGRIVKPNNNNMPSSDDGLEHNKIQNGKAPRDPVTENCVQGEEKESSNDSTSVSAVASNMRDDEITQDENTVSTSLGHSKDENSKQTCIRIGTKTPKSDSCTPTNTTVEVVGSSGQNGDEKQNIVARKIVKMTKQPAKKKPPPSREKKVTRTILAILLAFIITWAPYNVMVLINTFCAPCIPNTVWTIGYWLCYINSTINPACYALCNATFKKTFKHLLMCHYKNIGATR
Format: cell-based
Settings: shift in the acetylcholine dose-response curve (Allosteric EC50 shift, GraphPad PRISM); α >1 = positive cooperativity
Param label: returns 1 when Cooperativity (alpha factor) < 20, returns -1 otherwise, including exact equality.

Exam item: hey, is Cooperativity (alpha factor) for CC[C@@H](NC(=O)c1cn(-c2ccc(F)cc2F)c2nc(N3CCC(C)(F)C3)ccc2c1=O)C(F)(F)F (mixture of isomers) lower than 20 or not?
Marked response: 1

Exam item: hey, is Cooperativity (alpha factor) for CN(C)c1ccc2c(=O)c(C(=O)Nc3ccccc3C(F)(F)F)cn(-c3ccc(F)cc3F)c2n1 lower than 20 or not?
Marked response: 1

Exam item: hey, is Cooperativity (alpha factor) for CC[C@@H](NC(=O)c1cn(-c2ccc(F)cc2F)c2nc(N3CCC(C)(OC)C3=O)ccc2c1=O)C(F)(F)F (mixture of isomers) [Example 197] lower than 20 or not?
Marked response: 1

Exam item: hey, is Cooperativity (alpha factor) for COC(=O)N1CCN(c2ccc3c(=O)c(C(=O)NC45CC6CC(CC(C6)C4)C5)cn(-c4ccc(F)cc4F)c3n2)CC1 lower than 20 or not?
Marked response: -1

Exam item: hey, is Cooperativity (alpha factor) for CC[C@@H](NC(=O)c1cn(-c2ccc(F)cc2F)c2nc(N3CCC(O)(O)C(F)(F)C3)ccc2c1=O)C(F)(F)F lower than 20 or not?
Marked response: -1

Exam item: hey, is Cooperativity (alpha factor) for COC(=O)N1CCN(c2ccc3c(=O)c(C(=O)Nc4c(Cl)cccc4Cl)cn(-c4ccc(F)cc4F)c3n2)CC1 lower than 20 or not?
Marked response: -1
